Taken from paper PMC5502055.

assayOverview: Pharmacokinetics: serum lanreotide concentration (radioimmunoassay)
Type: in vivo, human
testSettings: human, serum, sc; 120 mg every 4 weeks; PPS 28 patients; mean ± SD; read-out: trough concentration at 24 weeks after the first injection
quantity: level at 4032 h (ng/mL)
All answers are understood in ng/mL, so give the number only.

Ask: Please supply the value of reported level at 4032 h for the item CC(C)[C@@H]1NC(=O)[C@H](CCCCN)NC(=O)[C@@H](Cc2c[nH]c3ccccc23)NC(=O)[C@H](Cc2ccc(O)cc2)NC(=O)[C@@H](NC(=O)[C@H](N)Cc2ccc3ccccc3c2)CSSC[C@@H](C(=O)N[C@H](C(N)=O)[C@@H](C)O)NC1=O [lanreotide]
Result: 6.1
